System: SF-268
Experiment: Cytotoxicity assay (cell titer-glo and calcein AM), SF-268
Details: read-out: Cytotoxicity IC50, SF-268, calcein; SF-268; calcein AM readout; % error in parentheses
So I've got a bunch of molecules here, and I need their IC50 values.

QUERY: So what's the measured IC50 for this one? COc1cc2c(c(OC)c1OC)-c1ccc(OC)c(=O)cc1[C@@H](NC(=O)CN(OC)[C@@H]1O[C@H](C)[C@H](O)[C@H](O)[C@H]1O)CC2 [Col9, D-fucoside]
RESULT: > 10 µM

QUERY: Given the molecule COc1cc2c(c(OC)c1OC)-c1ccc(OC)c(=O)cc1[C@@H](NC(C)=O)CC2 , what is its reported IC50?
RESULT: > 10 µM

QUERY: Consider the molecule CCCCCCCCCC(=O)NC[C@H]1O[C@@H](N(CC(=O)N[C@H]2CCc3cc(OC)c(OC)c(OC)c3-c3ccc(OC)c(=O)cc32)OC)[C@H](O)[C@@H](O)[C@@H]1O [Col59, 6-deoxy-6-N-decanoyl-D-glucosaminoside] and give its measured IC50.
RESULT: 9.44 µM

----------
System: NCI-H460
Assay: Cytotoxicity assay (cell titer-glo and calcein AM), NCI-H460
Conditions: read-out: Cytotoxicity IC50, NCI-H460, calcein; NCI-H460; calcein AM readout; % error in parentheses
Exercise: for every item that follows, state its recorded pIC50.
Please note pIC50 is a logarithmic value: minus log10 of concentration in mol/L. Answer with that number alone.

QUERY: Which pIC50 is reported with NCI-H460 for this entry: COc1cc2c(c(OC)c1OC)-c1ccc(OC)c(=O)cc1[C@@H](NC(=O)CN(OC)[C@@H]1OC[C@@H](O)[C@@H](O)[C@H]1O)CC2 [Col5, D-riboside] ?
RESULT: 5.24

QUERY: Which measured pIC50 belongs to COc1cc2c(c(OC)c1OC)-c1ccc(OC)c(=O)cc1[C@@H](NC(=O)CN(OC)[C@@H]1O[C@H](CCl)[C@H](O)[C@H](O)[C@H]1O)CC2 [Col41, 6-deoxy-6-chloro-D-galactoside] , tested on NCI-H460?
RESULT: 5.64

QUERY: I'm curious: which pIC50 was measured for COc1cc2c(c(OC)c1OC)-c1ccc(OC)c(=O)cc1[C@@H](NC(=O)CN(OC)[C@@H]1O[C@H](CF)[C@@H](O)[C@H](O)[C@H]1O)CC2 [Col54, 6-deoxy-6-fluoro-D-glucoside] tested on NCI-H460?
RESULT: 5.31

QUERY: NCI-H460 / pIC50 / COc1cc2c(c(OC)c1OC)-c1ccc(OC)c(=O)cc1C(NC(=O)CN(OC)C1OCC(O)C(O)C1O)CC2 [Col25, L-arabinoside] : value?
RESULT: 5.24

QUERY: # query: pIC50 | item COc1cc2c(c(OC)c1OC)-c1ccc(OC)c(=O)cc1[C@@H](NC(=O)CN(OC)[C@@H]1OC[C@@H](O)[C@H](O)[C@@H]1O)CC2 [Col1, D-lyxoside] | system: NCI-H460
RESULT: 5.41

QUERY: Any idea what pIC50 came out for COc1cc2c(c(OC)c1OC)-c1ccc(OC)c(=O)cc1[C@@H](NC(=O)CN(OC)[C@@H]1O[C@H](CO)[C@@H](O)C[C@H]1O)CC2 [Col3, 3-deoxy-D-glucoside] on NCI-H460?
RESULT: 5.71

QUERY: I'm curious: which pIC50 was measured for COc1cc2c(c(OC)c1OC)-c1ccc(OC)c(=O)cc1[C@@H](NC(=O)CN(OC)[C@@H]1O[C@H](C(=O)O)[C@@H](O)[C@H](O)[C@H]1O)CC2 [Col15, D-glucuronoside] tested on NCI-H460?
RESULT: 6.02

QUERY: What measured pIC50 is associated with COc1cc2c(c(OC)c1OC)-c1ccc(OC)c(=O)cc1C(NC(=O)CN(OC)C1OCC(O)C(O)C1O)CC2 [Col7, L-lyxoside] on NCI-H460?
RESULT: 5.24

----------
What IC50 was measured for each of the following?
Test system: Du145
Assay: Cytotoxicity assay (cell titer-glo and calcein AM), Du145
Conditions: read-out: Cytotoxicity IC50, Du145, calcein; Du145; calcein AM readout; % error in parentheses
Give the value, in units of µM, as a plain number.

QUERY: // returns reported IC50 for input COc1cc2c(c(OC)c1OC)-c1ccc(OC)c(=O)cc1C(NC(=O)CN(OC)C1OCC(O)C(O)C1O)CC2 [Col7, L-lyxoside]
RESULT: 4.73

QUERY: Quick one: IC50 of COc1cc2c(c(OC)c1OC)-c1ccc(OC)c(=O)cc1[C@@H](NC(=O)CN(OC)[C@H]1C[C@@H](O)[C@H](O)[C@@H](CO)O1)CC2 [Col16, 2-deoxy-D-glucoside] ?
RESULT: 0.91

QUERY: Requested field: IC50. Item: COc1cc2c(c(OC)c1OC)-c1ccc(OC)c(=O)cc1[C@@H](NC(=O)CN(OC)[C@@H]1O[C@H](CCl)[C@H](O)[C@H](O)[C@H]1O)CC2 [Col41, 6-deoxy-6-chloro-D-galactoside]
RESULT: 6.74

QUERY: So what does the record say about IC50 for COc1cc2c(c(OC)c1OC)-c1ccc(OC)c(=O)cc1C(NC(=O)CN(OC)C1OC(C)C(O)C(O)C1O)CC2 [Col37, L-rhamnoside] ?
RESULT: 4.36

QUERY: Which IC50 value belongs to COc1cc2c(c(OC)c1OC)-c1ccc(OC)c(=O)cc1[C@@H](NC(=O)CN(OC)[C@@H]1O[C@H](C(=O)O)[C@H](O)[C@H](O)[C@H]1O)CC2 [Col18, D-Galacturonoside] ?
RESULT: 1.19

QUERY: For the molecule COc1cc2c(c(OC)c1OC)-c1ccc(OC)c(=O)cc1[C@@H](NC(=O)CN(OC)[C@@H]1OC[C@@H](O)[C@@H](O)[C@H]1O)CC2 [Col5, D-riboside] , what IC50 is on record?
RESULT: 6.78

QUERY: IC50 for COc1cc2c(c(OC)c1OC)-c1ccc(OC)c(=O)cc1[C@@H](NC(C)=O)CC2 ?
RESULT: 4.67

QUERY: Record request: IC50 value, item CCCCCCCCCC(=O)N[C@@H]1[C@@H](O)[C@H](N(CC(=O)N[C@H]2CCc3cc(OC)c(OC)c(OC)c3-c3ccc(OC)c(=O)cc32)OC)O[C@H](CO)[C@H]1O [Col60, 3-deoxy-3-N-decanoyl-D-glucosaminoside]
RESULT: 6.2

----------
Assignment: determine reported log10 of IC50 for the given molecules.
Test system: Hep3B
Experiment: Cytotoxicity assay (cell titer-glo and calcein AM), Hep3B
Details: read-out: Cytotoxicity IC50, Hep 3B, calcein; Hep 3B; calcein AM readout; % error in parentheses
Kindly note that the scale is log10 and the underlying IC50 is in µM.

QUERY: Can you share its log10 of IC50? I mean this molecule: COc1cc2c(c(OC)c1OC)-c1ccc(OC)c(=O)cc1[C@@H](NC(=O)CN(OC)[C@@H]1O[C@H](CSC(C)=O)[C@H](O)[C@H](O)[C@H]1O)CC2 [Col68, 6-deoxy-6-thio-acyl-D-galactoside]
RESULT: 0.90

QUERY: Data request, read-out log10 of IC50, for COc1cc2c(c(OC)c1OC)-c1ccc(OC)c(=O)cc1C(NC(=O)CN(OC)C1OC(C)C(O)C(O)C1O)CC2 [Col37, L-rhamnoside]
RESULT: 0.98

QUERY: # get_value(readout='log10 of IC50', item= COc1cc2c(c(OC)c1OC)-c1ccc(OC)c(=O)cc1[C@@H](NC(=O)CN(OC)[C@@H]1O[C@H](CO)[C@@H](O)C[C@H]1O)CC2 [Col3, 3-deoxy-D-glucoside] )
RESULT: 0.61

QUERY: Entry COc1cc2c(c(OC)c1OC)-c1ccc(OC)c(=O)cc1[C@@H](NC(=O)CN(OC)[C@@H]1O[C@H](CN=[N+]=[N-])[C@H](O)[C@H](O)[C@H]1O)CC2 [Col43, 6-deoxy-6-azido-D-galactoside] has what log10 of IC50?
RESULT: 0.59

QUERY: I am curious: what log10 of IC50 value has been reported for COc1cc2c(c(OC)c1OC)-c1ccc(OC)c(=O)cc1[C@@H](NC(=O)CN(OC)[C@@H]1O[C@H](C(=O)O)[C@H](O)[C@H](O)[C@H]1O)CC2 [Col18, D-Galacturonoside] ?
RESULT: 0.36

QUERY: Consider the molecule shown here: COc1cc2c(c(OC)c1OC)-c1ccc(OC)c(=O)cc1[C@@H](NC(=O)CN(OC)[C@@H]1OC[C@@H](O)[C@@H](O)[C@H]1O)CC2 [Col5, D-riboside] What is its recorded log10 of IC50?
RESULT: 0.81

QUERY: What does the record list as log10 of IC50 for COc1cc2c(c(OC)c1OC)-c1ccc(OC)c(=O)cc1C(NC(=O)CN(OC)C1OC(COCc3ccccc3)C(OCc3ccccc3)C1OCc1ccccc1)CC2 (centres unmarked) ?
RESULT: -1.16
